tested on: 786-0 renal; experiment: NCI-60 one-dose screen, 48 h; conditions: 10 µM unless noted
The panel holds about 83,000 compounds, 20% with a hit somewhere; the sample as a whole holds those more often. Activity calls are given as the source filed them. Rule for the calls: active = growth percent below 10; inactive = the rest.
Possible outcomes: Y = active, N = inactive

molecule	answerLabel
COc1ccc(Cn2cc(C(=O)Nc3cccnc3Nc3ccccc3)nn2)cc1	N
COc1ccc(-c2nc(Cl)c3c(C)nn(-c4ccc(F)cc4)c3n2)cc1	N
O=C(Cc1ccc(F)cc1)c1ccccc1	N
Cc1ccc(-c2nc(SCC(=O)c3ccc(C#N)cc3)[nH]c(=O)c2C#N)cc1	N
[Cu+].[NH-][C@H]1C[N-]C(=O)[C@H]([C@H]2CCN=C(N)N2)[N-]C(=O)/C(=C\NC(N)=O)[N-]C(=O)[C@H](CNC(=O)C[C@@H](N)CCCN)[N-]C(=O)[C@H](CO)[N-]C1=O	N
Cc1ccc(C(=O)Nc2nc3c(s2)CN(Cc2ccccc2)CC3)cn1	N
O=[N+]([O-])c1cc(C(F)(F)F)ccc1Sc1ccc(C(F)(F)F)cc1[N+](=O)[O-]	N
COc1nc(=O)n(C2C=CC(=O)O2)cc1F (stereo not given)	N
O=C(NNC(=S)Nc1ccccc1)c1ccncc1	N
C=C1C(=O)O[C@H]2[C@H]1CC/C(COC(=O)NCCCCNC(=O)OC/C1=C/CC[C@@]3(C)O[C@H]3[C@H]3OC(=O)C(=C)[C@@H]3CC1)=C\CC[C@@]1(C)O[C@@H]21	N
CONC1=Nc2cc(NC(N)=NCc3ccccc3)c(N(C)C3CCCCC3)cc2OC1	N
COc1ccc(-c2ccc(-c3ccc(C(=N)N)cn3)s2)cc1Cl	Y
Cc1ccc(-c2nc3nc(-c4ccc(Br)cc4)nc(N4CCCNCC4)c3o2)cc1	Y
COc1ccc(-c2cc(-c3cccc(Cl)c3)c(C#N)c(=O)[nH]2)c(OC)c1	N
COc1cc(CNC(=O)CCCC/C=C/C(C)C)ccc1OCc1cn(-c2ccc([N+](=O)[O-])cc2)nn1	N
CC1(Cc2ccccc2)CC2=C(C(=O)O1)C(c1ccccc1)NC(=O)N2 (stereo not given)	N
COc1ccc(/C=C2/C(=O)N=C3N2NC(c2ccccc2)=CN3c2ccccc2)cc1	N
N=C(N)c1ccc(-c2ccc(-c3ccc(F)cc3)s2)nc1	N
CCOC(=O)C1=C(C)NC(=O)NC1c1c(Cl)n(-c2ccccc2)c2ccccc12 (stereo not given)	N
CCOC(=O)c1nnn(Cc2cc(=O)oc3c2ccc2ccccc23)c1C	N

Source of measurements: PubChem BioAssay (NCI)
